Just for reference, FireProtDB (doi:10.1074/jbc.m110728200) is where these values come from.

B1: Lysozyme C, P61626 (parent)
chain: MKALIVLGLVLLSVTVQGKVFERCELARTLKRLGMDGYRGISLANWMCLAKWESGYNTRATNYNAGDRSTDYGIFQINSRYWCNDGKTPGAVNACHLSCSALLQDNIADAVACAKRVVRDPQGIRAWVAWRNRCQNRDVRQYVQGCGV

Variants of: B1
Settings: Homo sapiens; pH 2.7; Thermal; DSC; Gly-HCl 0.05 M; structure 1LZ1; whole UniProt chain shown
Observable: Tm (°C)
All answers are understood in °C, so give the number only.

MKALIVLGLVLLSVTVQGKVFERCELARTLKRLGMDGYRGISLANWMCLAKWESGYNTRATNYNAGDRSTDYGIFQINSRYWCNDGKTPGAVNACHLSCSALLQDNIADAVACAKRVVRDPQGIRAWNAWRNRCQNRDVRQYVQGCGV; 65.1
MKALIVLGLVLLSVTVQGKVFERCELARTLKRLGMDGYRGISLANWMCLAKWESGYNTRATNYNAGDRSTDYGIFQINSRYWCNDGKTPGAYNACHLSCSALLQDNIADAVACAKRVVRDPQGIRAWVAWRNRCQNRDVRQYVQGCGV; 64
MKALIVLGLVLLSVTVQGKSFERCELARTLKRLGMDGYRGISLANWMCLAKWESGYNTRATNYNAGDRSTDYGIFQINSRYWCNDGKTPGAVNACHLSCSALLQDNIADAVACAKRVVRDPQGIRAWVAWRNRCQNRDVRQYVQGCGV; 60.5
MKALIVLGLVLLSVTVQGKVFERCELARTLKRLGMDGYRGISLANWMCLAKWESGYNTRATNYNAGDRSTDYGIFQINSRYWCNDGKTPGAVNACHLSCSALLQDNIADAVACAKRVVRDPQGIRAWRAWRNRCQNRDVRQYVQGCGV; 67.8
MKALIVLGLVLLSVTVQGKDFERCELARTLKRLGMDGYRGISLANWMCLAKWESGYNTRATNYNAGDRSTDYGIFQINSRYWCNDGKTPGAVNACHLSCSALLQDNIADAVACAKRVVRDPQGIRAWVAWRNRCQNRDVRQYVQGCGV; 60.4

GET /values?readout=Tm&item= `MKALIVLGLVLLSVTVQGKVFERCELARTLKRLGMDGYRGISLANWMCLAKWESGYNTRATNYNAGDRSTDYGIFQINSRYWCNDGKTPGANNACHLSCSALLQDNIADAVACAKRVVRDPQGIRAWVAWRNRCQNRDVRQYVQGCGV`
63.9

GET /values?readout=Tm&item= `MKALIVLGLVLLSVTVQGKVFERCELARTLKRLGMDGYRGISLANWMCLAKWESGYNTRATNYNAGDRSTDYGIFQINSRYWCNDGKTPGASNACHLSCSALLQDNIADAVACAKRVVRDPQGIRAWVAWRNRCQNRDVRQYVQGCGV`
64.9

GET /values?readout=Tm&item= `MKALIVLGLVLLSVTVQGKVFERCELARTLKRLGMDGYRGISLANWMCLAKWESGYNTRATNYNAGDRSTDYGIFQINSRYWCNDGKTPGAVNACHLSCSALLQDNIADAVACAKRVVRDPQGIRAWYAWRNRCQNRDVRQYVQGCGV`
64.4

GET /values?readout=Tm&item= `MKALIVLGLVLLSVTVQGKVFERCELARTLKRLGMDGYRGISLANWMCLAKWESGYNTRATNYNAGDRSTDYGIFQINSRYWCNDGKTPGARNACHLSCSALLQDNIADAVACAKRVVRDPQGIRAWVAWRNRCQNRDVRQYVQGCGV`
64.6

GET /values?readout=Tm&item= `MKALIVLGLVLLSVTVQGKNFERCELARTLKRLGMDGYRGISLANWMCLAKWESGYNTRATNYNAGDRSTDYGIFQINSRYWCNDGKTPGAVNACHLSCSALLQDNIADAVACAKRVVRDPQGIRAWVAWRNRCQNRDVRQYVQGCGV`
60.8

GET /values?readout=Tm&item= `MKALIVLGLVLLSVTVQGKVFERCELARTLKRLGMDGYRGISLANWMCLAKWESGYNTRATNYNAGDRSTDYGIFQINSRYWCNDGKTPGAVNACHLSCSALLQDNIADAVACAKRVVRDPQGIRAWDAWRNRCQNRDVRQYVQGCGV`
65.4

GET /values?readout=Tm&item= `MKALIVLGLVLLSVTVQGKVFERCELARTLKRLGMDGYRGISLANWMCLAKWESGYNTRATNYNAGDRSTDYGIFQINSRYWCNDGKTPGADNACHLSCSALLQDNIADAVACAKRVVRDPQGIRAWVAWRNRCQNRDVRQYVQGCGV`
63.5

GET /values?readout=Tm&item= `MKALIVLGLVLLSVTVQGKRFERCELARTLKRLGMDGYRGISLANWMCLAKWESGYNTRATNYNAGDRSTDYGIFQINSRYWCNDGKTPGAVNACHLSCSALLQDNIADAVACAKRVVRDPQGIRAWVAWRNRCQNRDVRQYVQGCGV`
63.6
